- Tested on: Saccharomyces cerevisiae BY4741 SeMeCo community
- protocol: z-score of subpopulation abundance vs DMSO median, subpopulation auxotrophic for HUM; higher = larger share of this subpopulation than in DMSO controls
- experimental context: 10 µM; 24 h; SM minimal medium; subpopulation (auxotrophy): HUM
Counter-ions that a name gives are not always drawn.
Criterion: z-score of subpopulation abundance meeting or surpassing -0.5. Met: 1. Not met: 0.

{"compound": "C[N+](C)(C)CCCCCCCCCC[N+](C)(C)C [Decamethonium Bromide]", "category label": 1}
{"compound": "CCCN1C[C@H](CSC)C[C@@H]2c3cccc4[nH]cc(c34)C[C@H]21 [Pergolide Mesylate]", "category label": 0}
{"compound": "COc1ccc(C=O)cc1 [p-Anisaldehyde]", "category label": 0}
{"compound": "CCC1=C[C@H]2CN3CCc4c([nH]c5ccccc45)[C@](C(=O)OC)(C2)[C@H]13 [Catharanthine]", "category label": 1}
{"compound": "NC(=O)CN1CCCC1=O [Piracetam]", "category label": 1}
{"compound": "CC(C)N(CCC(C(N)=O)(c1ccccc1)c1ccccn1)C(C)C (configuration not stated) [Disopyramide]", "category label": 1}
{"compound": "CN(C)C(=O)Oc1cccc([N+](C)(C)C)c1 [Neostigmine Bromide]", "category label": 1}
{"compound": "CC(C)(O)C(Cl)(Cl)Cl [Chlorobutanol]", "category label": 1}
{"compound": "CN[C@@H]1[C@@H](O)[C@@H](O[C@@H]2[C@@H](O)[C@H](O[C@H]3O[C@H](CN)CC[C@H]3N)[C@@H](N)C[C@H]2N)OC[C@]1(C)O.CN[C@@H]1[C@@H](O)[C@@H](O[C@@H]2[C@@H](O)[C@H](O[C@H]3O[C@H]([C@@H](C)N)CC[C@H]3N)[C@@H](N)C[C@H]2N)OC[C@]1(C)O.CN[C@@H]1[C@@H](O)[C@@H](O[C@@H]2[C@@H](O)[C@H](O[C@H]3O[C@H]([C@@H](C)NC)CC[C@H]3N)[C@@H](N)C[C@H]2N)OC[C@]1(C)O [Gentamicin Sulfate]", "category label": 0}
{"compound": "C[N+]12CCC(CC1)C(OC(=O)C(O)(c1ccccc1)c1ccccc1)C2 (configuration not stated) [Clidinium Bromide]", "category label": 1}
{"compound": "Cc1cc(C(C#N)c2ccc(Cl)cc2)c(Cl)cc1NC(=O)c1cc(I)cc(I)c1O (configuration not stated) [Closantel]", "category label": 1}
{"compound": "CCN(C)C(=O)Oc1cccc([C@H](C)N(C)C)c1 [Rivastigmine Tartrate]", "category label": 0}
{"compound": "O=c1[nH]c2ccccc2n1CCCN1CCC(n2c(=O)[nH]c3cc(Cl)ccc32)CC1 [Domperidone]", "category label": 1}
{"compound": "O=[N+]([O-])C(Br)(CO)CO [Bronopol]", "category label": 0}
{"compound": "NCCc1c[nH]c2ccc(O)cc12 [Serotonin HCl]", "category label": 1}
{"compound": "COc1cc2c(cc1OC)C1CC(=O)C(CC(C)C)CN1CC2 (configuration not stated) [Tetrabenazine (Xenazine)]", "category label": 0}
{"compound": "CN1[C@@H]2CC[C@H]1C[C@@H](OC(=O)C(CO)c1ccccc1)C2 (some centres not stated) [Atropine sulfate monohydrate]", "category label": 1}
{"compound": "CN(C)C(=O)Oc1ccc[n+](C)c1 [Pyridostigmine Bromide]", "category label": 1}
{"compound": "C[CH2][Hg][S]c1ccccc1C(=O)[O-].[Na+] [Thimerosal]", "category label": 1}
{"compound": "CN[C@@H]1[C@@H](O)[C@@H](O[C@@H]2[C@@H](O)[C@H](O[C@H]3O[C@H]([C@@H](C)O)[C@@H](O)[C@H](O)[C@H]3N)[C@@H](N)C[C@H]2N)OC[C@]1(C)O [Geneticin (G418 Sulfate)]", "category label": 0}
{"compound": "CN(C)[C@@H]1C(=O)C(C(N)=O)=C(O)[C@@]2(O)C(=O)C3=C(O)c4c(O)cccc4[C@@](C)(O)[C@H]3C[C@@H]12 [Tetracycline HCl]", "category label": 1}
{"compound": "C=CN1CCCC1=O.II [Povidone iodine]", "category label": 1}
{"compound": "N[C@@H]1C[C@H]1c1ccccc1 [Tranylcypromine (2-PCPA) HCl]", "category label": 0}
{"compound": "CN1[C@@H]2C[C@@H](OC(=O)[C@H](CO)c3ccccc3)C[C@H]1[C@@H]1O[C@@H]12 [Scopolamine HBr]", "category label": 0}
{"compound": "CN(C)[C@@H]1C(=O)C(C(N)=O)=C(O)[C@@]2(O)C(=O)C3=C(O)c4c(O)cccc4[C@@](C)(O)[C@H]3[C@H](O)[C@@H]12 [Oxytetracycline (Terramycin)]", "category label": 1}
{"compound": "CN1[C@@H]2CC[C@H]1C[C@@H](OC(=O)[C@H](CO)c1ccccc1)C2 [Hyoscyamine]", "category label": 0}
{"compound": "NCC(O)c1ccc(O)cc1 (racemic) [(+,-)-Octopamine HCl]", "category label": 1}
{"compound": "COC(=O)C1=CCCN(C)C1 [Arecoline HBr]", "category label": 1}
{"compound": "Oc1cccc2cccnc12 [8-Hydroxyquinoline]", "category label": 0}
{"compound": "CC[C@@]1(O)C(=O)OCc2c1cc1n(c2=O)Cc2cc3ccccc3nc2-1 [Camptothecin]", "category label": 0}
{"compound": "Oc1cc(Cl)ccc1Oc1ccc(Cl)cc1Cl [Triclosan]", "category label": 0}
{"compound": "CCN(C)C(=O)Oc1cccc([C@H](C)N(C)C)c1 [Rivastigmine]", "category label": 1}
